- METHOD: Human HepG2 cell viability assay in 384 well format
- Type: toxicity, cell-based
- Parameters: dose 125 nL, time 70.5 hour; concentration not given beside the values
- CONDITION SET: HepG2 cells, read-out: Inhibition
MEASUREMENT KIND: cytotoxicity at 70.5 h (%)
# unit: % | format: bare number

In the examples that follow, each entry is paired with its recorded cytotoxicity at 70.5 h.
- COMPOUND: "CNC(=O)COc1ccc(CNCc2ccc(F)cc2F)cc1"
  UNITS SYMBOL: "%"
  cytotoxicity at 70.5 h: -3.23
- COMPOUND: "O=C1CCC(=O)N1CCn1nnc(-c2cccc(Cl)c2)n1"
  UNITS SYMBOL: "%"
  cytotoxicity at 70.5 h: 1.35
- COMPOUND: "O=C(O)c1ccnc(-c2ccnc(COc3ccccc3Cl)n2)c1"
  UNITS SYMBOL: "%"
  cytotoxicity at 70.5 h: -7.03
- COMPOUND: "CC1CCN(CCNC(=O)c2cncnc2C(C)C)CC1"
  UNITS SYMBOL: "%"
  cytotoxicity at 70.5 h: -5.55
- COMPOUND: "COCC1CN(S(=O)(=O)c2cccs2)Cc2ncnn2C1 (centres undefined)"
  UNITS SYMBOL: "%"
  cytotoxicity at 70.5 h: -12.8
- COMPOUND: "CCc1cn[nH]c1C1CCCN(C(=O)c2cc(C(C)C)on2)C1 (centres undefined)"
  UNITS SYMBOL: "%"
  cytotoxicity at 70.5 h: -2.01

Bench note: what cytotoxicity at 70.5 h did CC(C)CNC(=O)COc1cccc[n+]1[O-] show?
0.267

Any idea what its cytotoxicity at 70.5 h is? The compound is CCOc1ccc(C(F)(F)F)cc1NC(=O)N1CCC(C(N)=O)CC1
-4.57

Tell me the measured cytotoxicity at 70.5 h of O=C(O)[C@]12CCCN(Cc3ccccc3)C[C@H]1CN(c1ncccn1)C2 , please.
-5.39

Looking for the measured cytotoxicity at 70.5 h of O=C(CSc1ccncc1)NC1CC(=O)N(CCc2ccccc2)C1 (centres undefined) , can you help?
-8.43

Suppose we examine the compound Cc1nc(COC[C@H]2CC[C@H]3[C@H](CCN3c3ncccn3)O2)cs1 ; what cytotoxicity at 70.5 h value has been reported?
-6.71

Need cytotoxicity at 70.5 h of CCc1ncc2c(n1)CN(Cc1nnc(Cc3ccccc3)o1)CC2 , thanks.
-1.62

Consider the compound N#Cc1cc(NC(=O)c2ccccn2)ccc1N1CCC(O)CC1 and give its measured cytotoxicity at 70.5 h.
-3.91

* * *

- METHOD: Human HepG2 cell viability assay in 384 well format
- Format: toxicity, cell-based
- Design: dose 125 nL, time 70.5 hour; concentration not given beside the values
- CONDITION SET: HepG2 cells, read-out: Inhibition
As shown below, each of these compounds has a reported cytotoxicity at 70.5 h value.
Please state the figure in %; there is no need to write the unit.

Record excerpt, results attached:
- COMPOUND: "COC(=O)c1cc(C)nc(N2CCN(Cc3ccn(C(C)C)c3)CC2)n1"
  MEASUREMENT KIND: "cytotoxicity at 70.5 h"
  READOUT VALUE: -18.7
- COMPOUND: "c1ccc(-c2ncc3c(n2)C2(CCN(c4ncccn4)C2)COC3)cc1 (configuration not stated)"
  MEASUREMENT KIND: "cytotoxicity at 70.5 h"
  READOUT VALUE: -2.35
- COMPOUND: "N[C@@H]1c2ccccc2C2(CCN(c3cnc4ccccc4n3)CC2)[C@H]1O"
  MEASUREMENT KIND: "cytotoxicity at 70.5 h"
  READOUT VALUE: -9.08
- COMPOUND: "COc1ccc2c3c1CN(S(C)(=O)=O)CC3=CC(C)(C)CO2"
  MEASUREMENT KIND: "cytotoxicity at 70.5 h"
  READOUT VALUE: -6.24
- COMPOUND: "CCn1cc(S(=O)(=O)Nc2cccnc2-n2cccn2)nc1C"
  MEASUREMENT KIND: "cytotoxicity at 70.5 h"
  READOUT VALUE: -2.93
- COMPOUND: "CCN1CCOCC12CCN(C(=O)Cc1ccccc1)CC2"
  MEASUREMENT KIND: "cytotoxicity at 70.5 h"
  READOUT VALUE: -11.2
- COMPOUND: "Cn1cc(CNCCNC(=O)Cc2ccccc2)c(-c2cccnc2)n1"
  MEASUREMENT KIND: "cytotoxicity at 70.5 h"
  READOUT VALUE: -5.62
- COMPOUND: "O=C1CC2(CCCCN2C(=O)c2ccncc2)CN1CC1CC1 (configuration not stated)"
  MEASUREMENT KIND: "cytotoxicity at 70.5 h"
  READOUT VALUE: 1.69

Entry O=C(O)[C@@H]1CCN(C(=O)c2cscn2)[C@@H]1c1ccc(F)cc1 has what cytotoxicity at 70.5 h?
-2.87

Entry O=C(NCCCN1CCCC1=O)c1ccc(-n2ccc3ccccc32)s1 has what cytotoxicity at 70.5 h?
1.6

What value of measured cytotoxicity at 70.5 h is listed for N#Cc1ccc(S(=O)(=O)NC(=O)C2CC2)c(C(F)(F)F)c1 ?
-13.8

So what's the measured cytotoxicity at 70.5 h for this one? Cc1nc(CN2CCn3cc(CNC(=O)C4CCC4)nc3C2)cs1
14

For the compound shown here, Cc1nn(C)c(N2CCOCC2)c1CN[C@@H]1c2ccccc2C[C@@H]1O , give the reported cytotoxicity at 70.5 h.
-0.734

* * *

- METHOD: Human HepG2 cell viability assay in 384 well format
- Type: toxicity, cell-based
- Design: dose 125 nL, time 70.5 hour; concentration not given beside the values
- CONDITION SET: HepG2 cells, read-out: Inhibition
Here, each record is paired with measured cytotoxicity at 70.5 h data.
Give just the number in %; leave the unit off.

Which value of cytotoxicity at 70.5 h has been reported for CCCc1noc(C(C)N2CC(n3cccn3)C2)n1 (centres undefined) in the records?
6.9

cytotoxicity at 70.5 h for O=C(NCC1CCN(c2ncccn2)CC1)c1cnccn1 ?
-12.6

Please look up its cytotoxicity at 70.5 h: CNC(=O)Cn1nc(C(C)C)c2cnn(C(C)(C)C)c2c1=O
25.5

Suppose we examine the molecule COCCN1CC(=O)c2sc(NC(C)C)nc2C1 ; what cytotoxicity at 70.5 h value has been reported?
2.05

GET /values?readout=cytotoxicity at 70.5 h&item= COCCOc1ccc(-c2noc([C@@H]3CCCN3)n2)cn1
-0.543

Given the molecule CN(C)CC(=O)N1C[C@@H](Oc2ccccn2)[C@H]2OCCC[C@H]21 , what is its reported cytotoxicity at 70.5 h?
9.63

Which measured cytotoxicity at 70.5 h value corresponds to Cc1cc(F)ccc1CN1CCCC(O)(CN2CCCC2)C1 (centres undefined) ?
-1.52

Need cytotoxicity at 70.5 h of CC1(C)COCCN1C(=O)Cc1csc(Cc2ccccn2)n1 , thanks.
-7.18

Requested field: cytotoxicity at 70.5 h. Item: O=C(CCCc1cn[nH]c1)N1C[C@@H](CN2CCCCCC2)[C@@H](CO)C1
-6.07

I am curious: what cytotoxicity at 70.5 h value has been reported for CN(C)C(=O)CN1CCC2(CC1)COc1ccccc1S(=O)(=O)N(C)C2 ?
0.16

Which value of cytotoxicity at 70.5 h has been reported for Nc1nccnc1C1CN(C(=O)c2cnc(C3CC3)nc2)CCO1 (centres undefined) in the records?
-4.03

Request the reported cytotoxicity at 70.5 h associated with COCC(=O)N1CC[C@@H](N2CCOCC2)[C@@H]1Cc1cccnc1
-12.2

Look at this molecule and give its reported cytotoxicity at 70.5 h. Cn1cc(N2CC3(COCCN(Cc4ccsc4)C3)OCC2=O)cn1 (centres undefined)
22.6

For the molecule shown here, Fc1cnc(N2C[C@@H](OCC3CCOCC3)[C@H]3OCCC[C@H]32)nc1 , give the reported cytotoxicity at 70.5 h.
-7.94

Name the recorded cytotoxicity at 70.5 h for Cc1cc(CN(C)C(=O)C2CC(c3cccc(F)c3)=NO2)no1 (centres undefined) .
-10.1

Look at this molecule and give its reported cytotoxicity at 70.5 h. Cc1ccc(OCC(O)COC2CCOCC2)c(Cl)c1 (centres undefined)
-0.327

Using the record for Cc1cc(C)n(C2CCCN(C(=O)c3cc(C4CC4)on3)C2)n1 (centres undefined) , report its cytotoxicity at 70.5 h.
0.784

Consider the molecule N#Cc1ccc(N2CCCN(CC(=O)N3CCOCC3)CC2)cc1 and give its measured cytotoxicity at 70.5 h.
21.1

Give its cytotoxicity at 70.5 h value. Item: CC(=O)N1CCSCC1c1ccc(C)o1 (centres undefined)
-8.59

Quick check: cytotoxicity at 70.5 h of CCc1nccn1C1CCCN(C(=O)c2ccc(C(N)=O)cn2)C1 (centres undefined) ?
-9.53

# query: cytotoxicity at 70.5 h of entry Cc1nn(C)c(Cl)c1S(=O)(=O)N(C)c1ccc(Cl)cn1
0.786

Return reported cytotoxicity at 70.5 h; argument: CCS(=O)(=O)N1CCCC(c2ccnc(N(C)C)c2)C1 (centres undefined)
-6.79

Name the recorded cytotoxicity at 70.5 h for CCOCCOc1ccccc1C(=O)N1C[C@H](C2CC2)[C@@H](N)C1 .
27.2

# lookup: cytotoxicity at 70.5 h of Cc1c(NC(=O)c2cccc(Br)c2)c(C(=O)N(C)C)nn1C
22.7
